Target: AR (Homo sapiens, UniProt P10275, T878A)
Construct: the amount of soluble AR protein in heat shocked C4-2 cell lysates; endogenous in cells; host or cells: C4-2 castration resistant prostate cancer cells
Sequence (P10275 whole entry T878A): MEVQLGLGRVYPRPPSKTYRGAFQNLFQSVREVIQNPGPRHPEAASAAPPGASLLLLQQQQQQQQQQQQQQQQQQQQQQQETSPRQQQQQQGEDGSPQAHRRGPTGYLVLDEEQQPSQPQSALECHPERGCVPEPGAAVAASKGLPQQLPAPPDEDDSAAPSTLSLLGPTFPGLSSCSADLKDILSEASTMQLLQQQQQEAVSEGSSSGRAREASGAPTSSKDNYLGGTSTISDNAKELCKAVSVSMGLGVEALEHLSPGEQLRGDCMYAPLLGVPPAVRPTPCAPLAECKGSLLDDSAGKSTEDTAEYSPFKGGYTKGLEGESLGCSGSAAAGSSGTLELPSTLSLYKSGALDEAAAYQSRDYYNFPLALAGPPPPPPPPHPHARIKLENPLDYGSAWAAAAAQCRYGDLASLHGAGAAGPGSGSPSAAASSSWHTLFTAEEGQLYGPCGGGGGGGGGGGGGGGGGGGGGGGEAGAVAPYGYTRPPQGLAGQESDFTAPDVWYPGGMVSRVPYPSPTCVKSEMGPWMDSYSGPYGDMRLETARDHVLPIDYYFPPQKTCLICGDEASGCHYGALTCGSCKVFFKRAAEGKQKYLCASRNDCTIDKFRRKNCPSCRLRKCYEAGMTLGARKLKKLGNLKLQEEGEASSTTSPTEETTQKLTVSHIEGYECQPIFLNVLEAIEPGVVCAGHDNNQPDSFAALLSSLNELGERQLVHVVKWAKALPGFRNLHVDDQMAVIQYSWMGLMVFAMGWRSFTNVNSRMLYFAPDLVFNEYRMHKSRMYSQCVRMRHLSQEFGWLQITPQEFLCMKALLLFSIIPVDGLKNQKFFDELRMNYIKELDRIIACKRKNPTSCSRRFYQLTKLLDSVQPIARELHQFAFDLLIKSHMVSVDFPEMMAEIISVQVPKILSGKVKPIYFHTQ
Assay: AlphaScreen cellular thermal shift assay (CETSA) for AR target engagement in C4-2 cells
Format: cell-based
Conditions: read-out: IC50, inhibition of DHT-induced AR stability at 46° C.
pIC50: −log10 of the molar value.
Respond with 1 for pIC50 values of 5 and above, -1 for values below.

Past entries and their recorded results:
| structureSmiles | answerLabel |
| --- | --- |
| Cc1c(-c2ccccc2F)[nH]c2ccc(CNC(=O)CCc3cnccn3)cc12 | -1 |
| Cc1c(-c2ccc(F)cc2)[nH]c2ccc(CNC(=O)c3ccc(CO)o3)cc12 | -1 |
| Cc1nsc(NC(=O)N2CCC(Sc3ccccc3C)CC2)n1 | 1 |

Input line: Entry Cc1c(-c2ccccc2F)[nH]c2ccc(CNC(=O)CCc3cn[nH]c3)cc12 : is its pIC50 no less than 5?
Output line: -1
